Reference for the values: PubChem BioAssay (NCI)

Tested on: UACC-257 melanoma
Experiment: NCI tumour cell line growth inhibition, 48 h
For each entry below, report its TGI value.

UACC-257 melanoma data for CCN(CC)CCCNc1c2ccc(Cl)cc2nc2ccc(OC)cc12 ; its TGI: 3.41 µM

Item O=C(O)Cn1ccc(=O)c2c([N+](=O)[O-])cccc21 ; assay system UACC-257 melanoma; TGI reported as > 100 µM

Measured TGI for this entry CC(C)(C)c1cc(C(OCCl)(C(F)(F)F)C(F)(F)F)c2c(c1)C(C(F)(F)F)(C(F)(F)F)OC21c2ccccc2C(=O)c2ccccc21 on UACC-257 melanoma: > 100 µM

Tested system UACC-257 melanoma; TGI recorded for Cc1ccc(NC2=CC(=O)C(=O)c3ccccc32)c(C)c1 was 4.44 µM

Record CC(=O)Oc1ccc2cc(Oc3ccccc3)c(=O)oc2c1 ; system UACC-257 melanoma; TGI = > 100 µM

Record for FC(F)(F)c1cnc(N/N=C(/c2ccccc2)c2ccccn2)c(Cl)c1 under target or system UACC-257 melanoma: TGI reported as 11.5 µM

Summary line: Cc1ccc(C(=O)N2C/C(=C/c3ccccc3)C(=O)/C(=C/c3ccccc3)C2)cc1 , UACC-257 melanoma, reported TGI = > 100 µM

Result for Clc1ccc(Cn2cc(/C=N/n3cnnc3)c3ccccc32)cc1 , tested on UACC-257 melanoma, TGI: > 100 µM

Record for COc1cccc(N2C(=O)C3CC(CC(C)(C)C)c4c([nH]c5ccccc45)C3C2=O)c1 (stereo unspecified) under target or system UACC-257 melanoma: TGI reported as > 10 µM

# TGI measured on UACC-257 melanoma for item COC(=O)c1ccc2c(c1)C(=O)c1c-2n(CCCCl)c(=O)c2cc(OC)c(OC)cc12 = > 100 µM

Here COc1ccc2c(C(=O)c3c(C)n(CCN4CCOCC4)c4ccccc34)cccc2c1 was tested on UACC-257 melanoma, and its TGI came to 97.9 µM

The recorded TGI with UACC-257 melanoma for O=C(Nc1nc2c(s1)CCc1c-2c(Br)n(Cc2ccccc2)c1Br)c1ccccc1 was > 100 µM

Tested on UACC-257 melanoma: COc1ccc(C(=O)/C=C/c2ccc(OCc3ccccc3)c(OC)c2)cc1OC . Observed TGI: > 100 µM

Per the reported UACC-257 melanoma data, Nc1c(C(=O)c2ccccc2)nnc2ccccc12 has TGI of 90.8 µM

Case Cn1c(CC(O)c2nc3ccccc3n2C)nc2ccccc21 (stereo unspecified) , UACC-257 melanoma, TGI recorded as > 47.8 µM

For the compound Nc1c(-c2nc3ccccc3s2)[n+]([O-])c2ccccc2[n+]1[O-] , the measured TGI on UACC-257 melanoma was > 100 µM

Item O=[N+]([O-])c1ccc(/C=C\c2ccc3c(c2)OCO3)c([N+](=O)[O-])c1 ; assay system UACC-257 melanoma; TGI reported as 32 µM

// TGI (UACC-257 melanoma) for N#Cc1c(N)nc2n[nH]c(N)c2c1-c1ccccc1 = > 83.6 µM

I looked up Cc1cc(OC(=O)Nc2ccc(Cl)cc2)ccc1C(=S)Nc1ccccc1 and its TGI for UACC-257 melanoma was > 100 µM

Per the reported UACC-257 melanoma data, O=S(=O)(NCCCNc1nccc(-c2c(-c3cccc(F)c3)nc3occn23)n1)c1cccc2ccccc12 has TGI of > 100 µM

// returns TGI for CCN(CC)C(=O)CCCCCn1c2ccccc2c2c3c(c4c5ccccc5[nH]c4c21)C(=O)N(O)C3=O with UACC-257 melanoma; value = 55.1 µM
